Target: T1, human neonatal Fc receptor (hFcRn) (human, UniProt P55899 24-290; P61769 21-119)
T1 construct: Biotinylated in the ELISA, Octet and yeast assays; also called human FcRn; huFcRn
T1 sequence (P55899 24-290 limits assumed, chain 1 of 2): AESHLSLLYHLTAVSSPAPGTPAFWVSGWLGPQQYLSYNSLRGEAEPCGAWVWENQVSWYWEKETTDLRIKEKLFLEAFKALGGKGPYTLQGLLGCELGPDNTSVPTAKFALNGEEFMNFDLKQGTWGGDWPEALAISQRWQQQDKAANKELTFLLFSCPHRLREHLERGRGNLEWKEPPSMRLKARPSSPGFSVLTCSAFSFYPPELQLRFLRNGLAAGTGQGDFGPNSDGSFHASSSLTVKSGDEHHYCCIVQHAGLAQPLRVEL
T1 sequence (P61769 21-119 limits assumed, chain 2 of 2): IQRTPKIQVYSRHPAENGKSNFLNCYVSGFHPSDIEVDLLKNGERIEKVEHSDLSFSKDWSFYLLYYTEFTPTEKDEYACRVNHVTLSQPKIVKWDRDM
Test: SPR competition pH 5.5
Quantity Name: pEC50
// scale note: pEC50 = -log10(conc_M); give the bare number

• variant Fc-fragment Fc-5-64 (other, soluble elsewhere) EPKSCDKTHTCPPCPAPELLGGPSVFLFPPKPKDTLMISRTPEVTCVVVDVSHEDPEVKFNWYVDGVEVHNAKTKPREEQYNSTYRVVSVLTVLHQDWLNGKEYKCKVSNKALPAPIEKTISKAKGQPREPQVYTLPPSRDELTKNQVSLTCLVKGFYPSDIAVEWESNGGCHSFKHFCGGGQPENNYKTTPPVLDSDGSFFLYSKLTVDKSRWQQGNVFSCSVMHEALHNHYTQKSLSLSPGK = 6.68

Inquiry: Please supply the value of reported pEC50 for the item variant Fc-fragment Fc-5-112 (other, soluble elsewhere) EPKSCDKTHTCPPCPAPELLGGPSVFLFPPKPKDTLMISRTPEVTCVVVDVSHEDPEVKFNWYVDGVEVHNAKTKPREEQYNSTYRVVSVLTVLHQDWLNGKEYKCKVSNKALPAPIEKTISKAKGQPREPQVYTLPPSRDELTKNQVSLTCLVKGFYPSDIAVEWESNGGCALYPTNCGGGQPENNYKTTPPVLDSDGSFFLYSKLTVDKSRWQQGNVFSCSVMHEALHNHYTQKSLSLSPGK
Reply text: 7.34

Inquiry: Supply recorded pEC50 for variant Fc-fragment Fc-5-1 (other, library L5 isolate; also called variant 5-1) EPKSCDKTHTCPPCPAPELLGGPSVFLFPPKPKDTLMISRTPEVTCVVVDVSHEDPEVKFNWYVDGVEVHNAKTKPREEQYNSTYRVVSVLTVLHQDWLNGKEYKCKVSNKALPAPIEKTISKAKGQPREPQVYTLPPSRDELTKNQVSLTCLVKGFYPSDIAVEWESNGGCGMPIEFCGGGQPENNYKTTPPVLDSDGSFFLYSKLTVDKSRWQQGNVFSCSVMHEALHNHYTQKSLSLSPGK here.
Reply text: 8.59
